Test system: P. vulgatus RND KO;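 further: active when median AUC fell below 0.1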
assay.protocol: growth AUC normalised to DMSO control (median) (fraction of control); higher = less growth inhibition, active = hit call of the paper
setup.conditions: 20 µM
Counter-ions that a name gives are not always drawn.
measurement.label: growth AUC normalised to DMSO control
One number for each entry.

Example molecules with recorded growth AUC normalised to DMSO control:
Cc1ncc([N+](=O)[O-])n1CC(O)CCl (stereo not drawn)    0.0124
C=CC(N)CCC(=O)O (stereo not drawn) [Vigabatrin hydrochloride]    1.01

The record that follows has no growth AUC normalised to DMSO control shown yet.
Prompt: Kindly state the measured growth AUC normalised to DMSO control obtained for CNCCC=C1c2ccccc2CCc2ccccc21 [Nortriptyline hydrochloride] with P. vulgatus RND KO.
Response: 0.99
